test system: IGROV1 ovarian; test: NCI tumour cell line growth inhibition, 48 h; in the data active = GI50 below about 0.43 µM; inactive = the rest
Outcome codes: label 1 (active), label 0 (inactive)

| COMPOUND | TARGET | CLASS_NAME |
| --- | --- | --- |
| Clc1nc(Cl)c2ncn(Cc3ccccc3Cn3cnc4c(Cl)nc(Cl)nc43)c2n1 | IGROV1 ovarian | label 0 |
| COc1cc(C(=O)O[C@H](C(N)=O)[C@]2(C)CO2)c2cccc(C)c2c1 | IGROV1 ovarian | label 1 |
| CCOC(=O)c1sc(NC(=O)COc2cccc(/C=C3\CCc4cc(OC)ccc4C3=O)c2)nc1C | IGROV1 ovarian | label 0 |
| O=C(N[C@@H](Cc1coc2ccccc12)B(O)O)[C@@H]1C[C@H]2CC[C@@H]1O2 | IGROV1 ovarian | label 0 |
| CC1(C)N=C(N)N=C(N)N1c1cccc(OCCOc2cccc([N+](=O)[O-])c2)c1 | IGROV1 ovarian | label 0 |
| COc1cc(/C=C2\CCC/C(=C\c3ccc(OCC4CO4)c(OC)c3)C2=O)ccc1OCC1CO1 (configuration not stated) | IGROV1 ovarian | label 0 |
| Cn1cc(-c2csc(-c3cn(C)c4ccc(F)cc34)n2)c2cnccc21 | IGROV1 ovarian | label 0 |

* * *

tested on: TK-10 renal; assay: NCI tumour cell line growth inhibition, 48 h
Measured TGI accompanies every entry in the list below.
PROPERTY_MEASURED: TGI

| MOLECULE | TARGET | PROPERTY_MEASURED | REPORTED_MEASUREMENT |
| --- | --- | --- | --- |
| Nc1nc(SCc2ccccc2Cl)c2[nH]cnc2n1 | TK-10 renal | TGI | 67 µM |
| CN1CCCOC(c2ccc(Cl)cc2)O1 (centres undefined) | TK-10 renal | TGI | > 100 µM |
| C1COCCSC2=C(SCCO1)SC(=C1SC3=C(SCCOCCOCCS3)S1)S2 | TK-10 renal | TGI | > 100 µM |
| CCCC(=O)[O-].CCCC(=O)[O-].NCCN.NCCN.[Co+3].[O-][Cl+3]([O-])([O-])[O-] | TK-10 renal | TGI | > 100 µM |
| Cc1ccc(C(=O)NCc2ccccc2)cc1N=NN(C)C | TK-10 renal | TGI | > 100 µM |
| COc1cc2nc(-c3cccs3)nc(Cl)c2cc1OC | TK-10 renal | TGI | > 100 µM |
| COC(=O)[C@]12CC[C@@H](C)[C@H](C)[C@@H]1C1=CC[C@@H]3[C@@]4(C)C(C=O)=C[C@@](C)(COC(=O)c5ccco5)[C@@H]4[C@H](O)C[C@@]3(C)[C@]1(C)CC2 | TK-10 renal | TGI | 9.32 µM |
| COc1ccc(-c2noc(N)c2-c2cc(OC)c3c(c2)OCO3)cc1 | TK-10 renal | TGI | > 100 µM |
| NC(=O)c1cn(Cc2ccccc2)c(=O)n1Cc1ccccc1 | TK-10 renal | TGI | > 100 µM |
| COc1cc(/C=C/C(=O)C(C(=O)/C=C/c2ccc(OC(=O)CCNC34CC5CC(CC(C5)C3)C4)c(OC)c2)C(=O)CCNC23CC4CC(CC(C4)C2)C3)ccc1OC(=O)CCNC12CC3CC(CC(C3)C1)C2 (centres undefined) | TK-10 renal | TGI | 18.7 µM |
| Cn1nnnc1SC(F)(F)c1nc2ccccc2o1 | TK-10 renal | TGI | > 100 µM |
| Cc1n[n+](Cc2ccccc2)c2sc(N)nn12 | TK-10 renal | TGI | > 100 µM |
| CC(NC(=O)c1c(O)[nH]c(=S)[nH]c1=O)c1ccc([N+](=O)[O-])cc1 (centres undefined) | TK-10 renal | TGI | > 100 µM |
| CCOP(=O)(OCC)/C(C#N)=C/c1ccc(-c2cc(C(F)(F)F)cc(C(F)(F)F)c2)o1 | TK-10 renal | TGI | 35.5 µM |
| COc1cc(Nc2nc3cc(C(F)(F)F)ccc3nc2C(=O)O)cc(OC)c1OC | TK-10 renal | TGI | > 100 µM |
| CCCCCCCCCCCCCCCCCCC1=C(O)C(=O)C=C(OC)C1=O | TK-10 renal | TGI | > 100 µM |
| COC(=O)[C@@H](NC(=O)N(Cc1ccccc1)C[C@H](CC(C)C)NC(=O)[C@@H](NC(=O)OC(C)(C)C)C(C)C)C(C)C | TK-10 renal | TGI | > 100 µM |
| Cc1ccc(C)c(N2C(=O)C(=O)C(c3nc4ccccc4o3)/C(=N\NC(=O)c3ccccc3O)C2=O)c1 (centres undefined) | TK-10 renal | TGI | > 100 µM |
| O=C(Cn1c2ccc(Br)cc2c2nc3ccccc3nc21)NNC(=S)NC1CCCCC1 | TK-10 renal | TGI | 28.7 µM |
